assay system: N-cadherin (Mus musculus, UniProt P15116)
Sequence (P15116 160-906): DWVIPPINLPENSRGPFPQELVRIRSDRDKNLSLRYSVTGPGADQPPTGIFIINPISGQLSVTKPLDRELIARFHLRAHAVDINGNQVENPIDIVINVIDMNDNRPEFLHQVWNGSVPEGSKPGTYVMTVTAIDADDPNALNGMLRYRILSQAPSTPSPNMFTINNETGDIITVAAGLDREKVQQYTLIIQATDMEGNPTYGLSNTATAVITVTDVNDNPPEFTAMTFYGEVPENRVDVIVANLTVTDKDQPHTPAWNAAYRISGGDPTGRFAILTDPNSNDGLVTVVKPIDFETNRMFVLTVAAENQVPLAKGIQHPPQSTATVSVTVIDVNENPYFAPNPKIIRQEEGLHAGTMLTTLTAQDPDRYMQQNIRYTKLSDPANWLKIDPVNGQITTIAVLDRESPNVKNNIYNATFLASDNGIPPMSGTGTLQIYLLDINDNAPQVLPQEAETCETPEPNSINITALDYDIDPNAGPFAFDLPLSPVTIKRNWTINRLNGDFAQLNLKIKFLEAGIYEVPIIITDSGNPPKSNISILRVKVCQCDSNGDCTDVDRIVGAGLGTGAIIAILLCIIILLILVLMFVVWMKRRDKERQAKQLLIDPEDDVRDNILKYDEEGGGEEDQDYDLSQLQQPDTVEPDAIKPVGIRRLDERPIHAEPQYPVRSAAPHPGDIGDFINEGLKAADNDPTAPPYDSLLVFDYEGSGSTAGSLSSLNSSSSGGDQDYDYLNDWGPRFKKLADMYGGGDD
test name: Aggregation assay, N-cadherin transfected L-cells
run parameters: N-cadherin expressing L-cells, 2 hours incubation, 5 mM CaCl2; read-out: IC50, inhibition of N-cadherin mediated aggregation
pIC50: −log10 of the molar value. Where a SMILES comes first, the peptide text is derived from it. Bridges are numbered along the chain shown (N, C = ends).
Listed next: entries and their corresponding pIC50.

{"compound": "CC[C@H](C)[C@@H]1NC(=O)[C@@H](NC(C)=O)CSSC[C@@H](C(N)=O)NC(=O)[C@@H]2CCCN2C(=O)[C@H](CC(N)=O)NC1=O [cyclic INP, cyclic CINPC] (Ac-CINPC-NH2; disulfide 1-5)", "pIC50": "> 3.52"}

Consider now this further compound.
## Input Using known records, supply pIC50 for CC(=O)N[C@H]1CSSC[C@@H](C(N)=O)NC(=O)[C@H](C(C)C)NC(=O)[C@H](C)NC(=O)[C@H](Cc2c[nH]cn2)NC1=O
## Output 3.70 to 3.82

----------
assay system: R-cadherin (Mus musculus)
Sequence (P39038 167-913): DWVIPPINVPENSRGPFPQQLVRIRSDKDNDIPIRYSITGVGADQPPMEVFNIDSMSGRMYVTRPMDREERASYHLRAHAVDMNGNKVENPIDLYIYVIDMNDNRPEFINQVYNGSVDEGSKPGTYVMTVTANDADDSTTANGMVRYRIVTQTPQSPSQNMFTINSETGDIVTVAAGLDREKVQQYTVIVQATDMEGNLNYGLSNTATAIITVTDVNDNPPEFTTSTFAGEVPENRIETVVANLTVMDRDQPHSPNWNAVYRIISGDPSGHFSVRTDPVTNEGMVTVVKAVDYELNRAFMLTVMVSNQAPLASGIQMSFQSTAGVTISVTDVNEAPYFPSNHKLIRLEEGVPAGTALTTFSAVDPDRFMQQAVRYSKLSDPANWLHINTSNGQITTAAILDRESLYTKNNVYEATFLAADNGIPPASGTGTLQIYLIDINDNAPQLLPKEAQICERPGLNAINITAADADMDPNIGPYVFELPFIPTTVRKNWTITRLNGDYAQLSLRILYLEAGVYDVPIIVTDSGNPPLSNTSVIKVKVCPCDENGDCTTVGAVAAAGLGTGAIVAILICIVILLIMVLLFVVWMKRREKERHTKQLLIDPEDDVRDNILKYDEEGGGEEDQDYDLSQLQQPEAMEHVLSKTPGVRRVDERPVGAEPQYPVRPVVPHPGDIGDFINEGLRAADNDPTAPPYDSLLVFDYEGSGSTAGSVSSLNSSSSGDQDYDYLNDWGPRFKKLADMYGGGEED
test name: Aggregation assay, R-cadherin transfected L-cells
run parameters: R-cadherin expressing L-cells, 2 hours incubation, 5 mM CaCl2; read-out: IC50, inhibition of R-cadherin mediated aggregation
pIC50: −log10 of the molar value.
measured property: pIC50

## Input Indicate its recorded pIC50; the compound in question is CC(=O)N[C@H]1CSSC[C@@H](C(N)=O)NC(=O)[C@H](C(C)C)NC(=O)[C@H](C)NC(=O)[C@H](Cc2c[nH]cn2)NC1=O
## Output 3.70 to 3.82
